# testedTarget: human V-1 receptor (V1a) (Homo sapiens)
# Construct: expressed in transfected cells; host or cells: HEK-293 (membranes)
# Sequence (P37288 whole entry): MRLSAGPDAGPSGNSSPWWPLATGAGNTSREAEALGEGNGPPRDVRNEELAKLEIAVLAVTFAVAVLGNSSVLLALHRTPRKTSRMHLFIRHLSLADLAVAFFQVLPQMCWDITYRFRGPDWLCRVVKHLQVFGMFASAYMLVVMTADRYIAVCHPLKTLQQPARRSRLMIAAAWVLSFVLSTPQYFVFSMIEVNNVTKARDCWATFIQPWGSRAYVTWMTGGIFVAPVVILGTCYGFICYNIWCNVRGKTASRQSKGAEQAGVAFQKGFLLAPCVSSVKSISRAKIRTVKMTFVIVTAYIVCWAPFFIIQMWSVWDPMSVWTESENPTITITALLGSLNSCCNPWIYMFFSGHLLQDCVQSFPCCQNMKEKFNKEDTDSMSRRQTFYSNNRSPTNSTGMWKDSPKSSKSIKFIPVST
# assayDetails: In vitro recombinant vasopressin receptor binding assay (3H-arginine vasopressin displacement), V1a
# testContext: 0.2 μM test compound; cloned human receptor membranes from HEK-293 cells; read-out: Binding V1a (% inhib @ 0.2 μM)
Counter-ions that a name gives are not always drawn.
recordedEndpoint: inhibition at 0.2 µM (%)

[[record]]
compound = "CSC[C@@H]1CN(C(=O)c2ccc(NC(=O)c3ccccc3-c3ccccc3)cc2Cl)c2ccccc2CN1C"
testedtarget = "human V-1 receptor (V1a) (Homo sapiens)"
endpointvalue = 0

[[record]]
compound = "COC[C@@H]1CN(C(=O)c2ccc(NC(=O)c3ccccc3-c3ccccc3)cc2Cl)c2ccccc2CN1C [Cpd 6, trifluoroacetate]"
testedtarget = "human V-1 receptor (V1a) (Homo sapiens)"
endpointvalue = 0

[[record]]
compound = "O=C(Nc1ccc(C(=O)N2C[C@@H](CO)N(S(=O)(=O)c3ccccc3)Cc3ccccc32)c(Cl)c1)c1ccccc1-c1ccccc1"
testedtarget = "human V-1 receptor (V1a) (Homo sapiens)"
endpointvalue = 0


(1) CN1Cc2ccccc2N(C(=O)c2ccc(NC(=O)c3ccccc3-c3ccccc3)cc2Cl)C[C@@H]1CN1CCCC1 [Cpd 3, ditrifluoroacetate]
(2) CCCS(=O)(=O)N1Cc2ccccc2N(C(=O)c2ccc(NC(=O)c3ccccc3-c3ccccc3)cc2Cl)C[C@H]1CO
(3) CC(=O)N1Cc2ccccc2N(C(=O)c2ccc(NC(=O)c3ccccc3-c3ccccc3)cc2Cl)C[C@H]1CO
(4) O=C(Nc1ccc(C(=O)N2C[C@@H](CO)N(Cc3ccccc3)Cc3ccccc32)c(Cl)c1)c1ccccc1-c1ccccc1
List by increasing inhibition at 0.2 µM. Return value: ordered labels per request.
1, 4, 2, 3
(1: 0%, 4: 1%, 2: 2%, 3: 6%)
